Test system: MCF-7 cells
Experiment: cell cytotoxic effects against MCF-7 cells (72 h), A490
Format: cell-based, human
Conditions: MCF-7, 72 h, 1 µM (DMSO 0.02%); control 1.104
If the reported A490 ave equals or exceeds 1, assign criterion met. If not, assign criterion not met.

compound	classification
C=C1CC[C@H]2[C@]3(C)C[C@H](C=C(C)C)O[C@H]3CC[C@]2(C)[C@@H]1Cc1c(O)c(C)c(C)oc1=O	criterion met
C=C1CCC2C(C)(CC(=O)C=C(C)C)C(O)CCC2(C)C1Cc1c(OC)oc(C)c(C)c1=O (stereo not drawn)	criterion met
C=C1CC[C@@H]2[C@](C)(CC[C@H]3O[C@H](C=C(C)C)C[C@@]23C)[C@@H]1Cc1c(OC)oc(C)c(C)c1=O	criterion not met
C=C1CCC2C(C)(CCC=C(C)C)C(O)CCC2(C)C1Cc1c(OC)oc(C)c(C(=O)OC)c1=O (stereo not drawn)	criterion not met
O=c1[nH]cc(F)c(=O)[nH]1 [Compound 5-FU, 5-fluorouracil, reference compound]	criterion not met

All values here come from paper PMC7156458.
